# herbicidal effect rating listing for each entry below
Test system: MOOVA Monochoria
Experiment: Preemergence weed control, flooded paddy (Table III)
Type: in vivo, Monochoria vaginalis
Design: scale not given here
Conditions: 0.0313 kg/ha

>  <compound>
COc1ccc(C)cc1-c1nsc2ccc(-n3c(=O)cc(C(F)(F)F)n(C)c3=O)cc12

>  <herbicidal effect rating>
9.0

$$$$
>  <compound>
CCc1ccc(-c2nsc3ccc(-n4c(=O)cc(C(F)(F)F)n(C)c4=O)cc23)cc1

>  <herbicidal effect rating>
9.0

$$$$
>  <compound>
COC(=O)C(C)Oc1cc(C)c(C)cc1-c1nsc2ccc(-n3c(=O)cc(C(F)(F)F)n(C)c3=O)cc12 (stereo not drawn)

>  <herbicidal effect rating>
9.0

$$$$

Every entry's value here was drawn from patent US6156700A.
